# Tested on: A673 NR0B1-luciferase reporter, viability-normalised luminescence
# protocol: suppressors of NR0B1-promoter luciferase reporter, dose response, EWS/Fli inhibitor project, luciferase luminescence, A673 cells, cherry-pick (AID 686920)
property: AC35

Could I get AC35 for every one of these entries?
1. C[C@@H]1CN([C@@H](C)CO)C(=O)Cc2cc(N(C)C)ccc2O[C@@H]1CN(C)Cc1ccccc1
2. CN=c1scc(-c2ccccc2F)n1/N=C/c1ccc(O)c(O)c1O

Ans:
1. 7.99 µM
2. 15.7 µM

Could I get AC35 for every one of these entries?
1. Nc1cc2c(cc1Br)[nH]c(=O)c1ccccc12
2. Nc1ccc(-c2cc3ccccc3c(=O)o2)cc1
3. O=C(C[C@@H]1CC[C@@H]2[C@H](COC[C@@H](O)CN2S(=O)(=O)c2ccc(F)cc2)O1)NCc1ccc(Cl)c(Cl)c1
4. COc1ccc(S(=O)(=O)Nc2cccc3c2O[C@H](CN(C)Cc2ccc(C(=O)Nc4ccccc4N)cc2)[C@H](C)CN([C@@H](C)CO)C3=O)cc1
5. Cn1ccc2cc(-c3ccc4ncnc(NCc5cccs5)c4c3)ccc21
6. O=C1NC(=O)N(Cc2ccccc2)C(=O)/C1=C\C=C\c1ccco1

Ans:
1. 43.3 µM
2. 0.485 µM
3. 61.8 µM
4. 5.64 µM
5. 4.12 µM
6. 10.4 µM

Q: Please indicate AC35 recorded for `CCOC(=O)Cc1csc(NC(=S)NC(=O)c2ccc(C)cc2)n1`
Ans: 0.265 µM
